Here, each record is paired with measured IC50 data.
- assayedSystem: Protein kinase C (PKC)
- protocolSummary: Inhibition of Protein kinase C of rat brain using phosphatidyl serine: di-acyl glycerol (2:1)
Report only the number, with the unit µM understood.

// known answers, use as guide
CCCCCCCCCCCCc1csc([C@@H](O)[C@@H](N)CO)c1    13.3
CCCCCCCCCCCCC/C=C/[C@@H](O)[C@@H](N)CO    23.4
CCCCCCCCCCC#Cc1ccc([C@@H](O)[C@@H](N)CO)s1    26.2
CCCCCCCCCCCOc1cccc([C@@H](O)[C@@H](N)CO)c1    24.1
CCCCCCCCCCCC(=O)c1cccc([C@@H](O)[C@@H](N)CO)c1    20.7

Notebook: pull reported IC50 for Protein kinase C (PKC), entry CCCCCCCCCCCC(=O)c1ccc([C@@H](O)[C@@H](N)CO)s1
22.4

====

- assayedSystem: Protein kinase C (PKC)
- protocolSummary: Inhibition of Protein kinase C of rat brain using phosphatidyl serine: di-acyl glycerol (2:1)
# reported IC50; entries follow
Reply numerically in µM, unit not repeated.

CCCCCCCCCCC#Cc1csc([C@@H](O)[C@@H](N)CO)n1    15.2
CCCCCCCCCCC#Cc1cc([C@@H](O)[C@@H](N)CO)cs1    34.5
CCCCCCCCCCCC(=O)c1csc([C@@H](O)[C@@H](N)CO)c1    22.4
CCCCCCCCCCCCc1cccc([C@@H](O)[C@@H](N)CO)c1    17.3
CCCCCCCCCCC#Cc1csc([C@@H](O)[C@@H](N)CO)c1    23.7

Entry under review: CCCCCCCCCCC#Cc1cccc([C@@H](O)[C@@H](N)CO)c1 . Reported IC50?
22.2
